Recorded IC50 for the following molecules
assay: Biochemical Assay: A variety of Ras proteins may be inhibited by compounds of the present invention (e.g., K-Ras, N-Ras, H-Ras, and mutants thereof at positions 12, 13 and 61, such as G12C, G12D, G12V, G12S, G13C, G13D, and Q61L, and others described herein). The purpose of this biochemical assay is to measure the ability of test compounds to covalently label nucleotide-loaded K-Ras isoforms. […] The sample is incubated at 25? C. for a time period of up to 24 hours prior to quenching by the addition of 10 uL of 5% Formic Acid. Quenched samples are centrifuged at 15000 rpm for 15 minutes in a benchtop centrifuge before injecting a 10 uL aliquot onto a reverse phase C4 column and eluting into the mass spectrometer with an increasing acetonitrile gradient in the mobile phase. Analysis of raw data may be carried out using Waters MassLynx MS software, with % bound calculated from the deconvoluted protein peaks for labeled and unlabeled K-Ras.

Below: 2 molecules and their reported IC50.
INSERT INTO assay_data (molecule, reported_endpoint, reported_measurement) VALUES
  ('C=CC(=O)N1CC[C@H](C(=O)N(C)[C@H](C(=O)N[C@H]2Cc3nc(ns3)-c3ccc4c(c3)c(c(-c3cncnc3[C@H](C)OC)n4CC)CC(C)(C)CC=C[C@@H]3CCCN(N3)C2=O)C(C)C)C1 (stereo in doubt)', 'IC50', '> 10 µM'),
  ('CCn1c(-c2cccnc2C(C)OC)c2c3cc(ccc31)N1CCC[C@@H](C[C@H](NC(=O)[C@H](C(C)C)N(C)C(=O)[C@H]3CCN(C(=O)C#CC(C)(C)N4CCC4)C3)C(=O)N3CCC[C@H](N3)C(=O)OCC(C)(C)C2)C1 (stereo partly drawn)', 'IC50', '> 10 µM');

Please turn your attention to the following entry.
Incoming: What IC50 value was documented for this molecule, C=CC(=O)Nc1ncc(C(=O)N(C)[C@H](C(=O)N[C@H]2Cc3cccc(c3)-c3ccc4c(c3)c(c(-c3cccnc3C(C)OC)n4CC)CC(C)(C)COC(=O)[C@@H]3CCCN(N3)C2=O)C(C)C)n1C (stereo partly drawn) ?
Outgoing: < 0.01 µM

FYI, the data here is from ChEMBL document CHEMBL5729568.
